assayed.target: Dual specificity protein kinase CLK3 (Homo sapiens)
Sequence (P49761 whole entry): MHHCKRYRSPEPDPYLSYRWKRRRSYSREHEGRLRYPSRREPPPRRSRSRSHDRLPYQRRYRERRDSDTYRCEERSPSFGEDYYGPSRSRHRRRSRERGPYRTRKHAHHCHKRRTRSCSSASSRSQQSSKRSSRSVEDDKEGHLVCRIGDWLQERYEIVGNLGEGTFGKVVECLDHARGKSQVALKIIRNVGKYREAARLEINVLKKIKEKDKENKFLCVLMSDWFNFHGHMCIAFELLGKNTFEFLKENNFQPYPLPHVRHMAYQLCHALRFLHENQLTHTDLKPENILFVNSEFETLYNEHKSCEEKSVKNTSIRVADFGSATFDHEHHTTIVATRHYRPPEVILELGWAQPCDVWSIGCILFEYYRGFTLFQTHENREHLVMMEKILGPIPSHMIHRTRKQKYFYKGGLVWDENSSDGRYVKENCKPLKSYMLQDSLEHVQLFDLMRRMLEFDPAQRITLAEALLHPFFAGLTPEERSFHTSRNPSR
assay.comment: Inhibition of recombinant CLK3 (unknown origin) using Ser/Thr 18 peptide as substrate incubated for 1 hr in presence of ATP by FRET assay
recorded.endpoint: EC50

Below, 3 compounds whose answers are already recorded.
{"columns": ["input.smiles", "assayed.target", "reported"],
 "data": [
  ["O=C(Nc1cccnc1)c1n[nH]cc1C#Cc1cncc(OC2CCNCC2)c1", "Dual specificity protein kinase CLK3 (Homo sapiens)", "> 10 µM"],
  ["COc1cncc(C#Cc2c[nH]nc2C(=O)Nc2ccc(OC3CCN(C)CC3)nc2)c1", "Dual specificity protein kinase CLK3 (Homo sapiens)", "> 10 µM"],
  ["CN(C)CCOc1cc(C(=O)Nc2cc3cc(-c4cnn(C)c4)ccc3cn2)ccn1", "Dual specificity protein kinase CLK3 (Homo sapiens)", "0.03 µM"]
]}

Query: Look up and state reported EC50 for `COc1cncc(C#Cc2c[nH]nc2C(=O)Nc2ccc(OCCN3CCCC3)nc2)c1`
Result: > 10 µM

Query: Hello, please tell me recorded EC50 for this one: `O=C(Nc1cc2cc(-c3cnco3)cnc2cn1)C1CCNCC1`
Result: > 10 µM

Query: Determine its reported EC50: `CN(C)CCNc1cc(F)cc(-c2cccc3[nH]c(-c4n[nH]c5ncc(-c6ccncc6)cc45)cc23)c1`
Result: > 10 µM

Query: In one line, give reported EC50 of the entry `CN(C)CCNc1cc(F)cc(-c2cccc3[nH]c(-c4n[nH]c5ccc(-c6cncc(CN7CCCCC7)c6)nc45)cc23)c1` .
Result: 0.049 µM

###

assayed.target: Dual specificity protein kinase CLK2 (Homo sapiens)
Sequence (P49760 whole entry): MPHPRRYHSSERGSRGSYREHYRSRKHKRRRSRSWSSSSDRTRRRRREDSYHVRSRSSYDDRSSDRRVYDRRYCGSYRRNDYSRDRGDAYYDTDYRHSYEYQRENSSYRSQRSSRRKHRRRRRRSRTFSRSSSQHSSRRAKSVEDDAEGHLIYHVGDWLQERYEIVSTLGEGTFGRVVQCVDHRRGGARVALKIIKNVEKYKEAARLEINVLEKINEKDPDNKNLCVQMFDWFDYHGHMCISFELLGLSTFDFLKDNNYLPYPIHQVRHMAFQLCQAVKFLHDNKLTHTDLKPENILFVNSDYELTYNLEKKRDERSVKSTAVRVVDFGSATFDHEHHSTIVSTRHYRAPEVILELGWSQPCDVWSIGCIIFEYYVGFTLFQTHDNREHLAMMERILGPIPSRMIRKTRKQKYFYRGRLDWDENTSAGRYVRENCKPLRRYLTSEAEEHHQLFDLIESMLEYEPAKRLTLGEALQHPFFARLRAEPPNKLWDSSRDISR
assay.comment: Inhibition of recombinant CLK2 (unknown origin) using Ser/Thr 6 peptide as substrate incubated for 1 hr in presence of ATP by FRET assay
recorded.endpoint: EC50 (nM)

{"columns": ["input.smiles", "assayed.target", "EC50 (nM)"],
 "data": [
  ["O=C(N[C@H]1C[C@@H]1c1ccccc1)c1n[nH]c2ccc(-c3cncc(CN4CCCCC4)c3)cc12", "Dual specificity protein kinase CLK2 (Homo sapiens)", 8]
]}

(A) Oc1cncc(-c2ccc3[nH]nc(-c4nc5c(-c6cccc(F)c6)ccnc5[nH]4)c3c2)c1
(B) CN1CCN(c2cc(CC(=O)Nc3cc4cc(-c5cnn(C)c5)ccc4cn3)ccn2)CC1
Query: Compare reported EC50 values for A and B . Which is lower? Use the label to indicate which entry you chose.
Result: B
(B: 10 nM, A: 17 nM)

###

assayed.target: Dual specificity tyrosine-phosphorylation-regulated kinase 1A (Homo sapiens)
assay.comment: Inhibition of recombinant DYRK1A (unknown origin) using Ser/Thr 18 peptide as substrate incubated for 1 hr in presence of ATP by FRET assay
pEC50: −log10 of the molar value.
recorded.endpoint: pEC50

{"columns": ["input.smiles", "reported"],
 "data": [
  ["Cc1ccncc1-c1ccc2[nH]nc(-c3cc4c(-c5ccncc5)ccnc4[nH]3)c2n1", 7.18],
  ["O=C(Nc1cnccn1)c1n[nH]c2ccc(-c3cncc(CN4CCCCC4)c3)cc12", 9.00]
]}

(P) Oc1cncc(-c2ccc3[nH]nc(-c4nc5c(-c6cccc(F)c6)ccnc5[nH]4)c3c2)c1
(Q) Cc1cn(-c2cncc3[nH]c(-c4n[nH]c5ccc(-c6cncc(NC(=O)CC(C)C)c6)cc45)nc23)cn1
(R) CN1CCCn2cc(nn2)-c2nccc3[nH]c(nc23)-c2n[nH]c3ccc(cc23)-c2cncc(c2)C1
(S) c1cc2[nH]c(-c3n[nH]c4ccc(-c5cncc(CN6CCCCC6)c5)cc34)cc2c(N2CCCCC2)n1
Query: Sort by pEC50, descending. Give me the labels in the order the question wants.
Result: Q, R, P, S
(Q: 9.00, R: 8.40, P: 7.92, S: 7.49)

(I) CN(C)c1cncc(-c2cc3c(-c4cc5cnccc5[nH]4)n[nH]c3cn2)c1
(II) Nc1cncc(-c2ccc3[nH]nc(-c4nc5c(-c6ccccc6F)ccnc5[nH]4)c3c2)c1
Query: Given the listed items, does I or II have the lesser reported pEC50? Reply with the label of the item you choose.
Result: I

(A) COc1cncc(C(=O)Nc2c[nH]nc2C(=O)Nc2ccc3c(c2)CCN(C)C3)c1
(B) COc1ccc(NC(=O)c2n[nH]c3ccc(-c4cncc(CN5CCCCC5)c4)cc23)cn1
(C) c1cncc(-c2cc3c(-c4cc5c(-c6cccnc6)cncc5[nH]4)n[nH]c3cn2)c1
Query: Returns the items ordered by pEC50, from maximum to minimum. Record the ranking as a list of labels in the requested order.
Result: B, A, C

meta.source: ChEMBL document CHEMBL4739717
